- assay.remarks: VP16 transactivation inhibitors, counter-screen for SRC1 inhibitor project, cell-based, luminescence, high throughput (AID 588824)
- cond: cell-based VP16 transactivation luciferase luminescence; at 3.6 µM
Active and inactive are the calls of the source. Rule as the data show it: active = inhibition above about 25%; inactive = the rest.
Outcomes: t for active, f for inactive

>>> category("O=C(N/N=C(\\c1ccccc1)c1ccccn1)c1ccccc1Cl")
"f"
>>> category("CCN(CC)c1ccc(C(=C2C=CC(=[N+](CC)CC)C=C2)c2ccccc2)cc1")
"t"
>>> category("Cn1c(=O)c2c(nc(NCc3ccco3)n2C/C=C/c2ccccc2)n(C)c1=O")
"t"
>>> category("CS(=O)(=O)N(CCC#N)Cc1ccc(/C=C2\\C(=O)Nc3ccccc32)o1")
"t"
>>> category("COC(=O)C12OCC34C(CC5C(C)=C(O)C(=O)CC5(C)C3C(O)C1O)OC(=O)C(OC(=O)C=C(C)C)C24 (centres undefined)")
"t"
>>> category("Cc1csc(NC(=O)c2cc(-c3ccccc3)nc3ccccc23)n1")
"f"
>>> category("CN(C)CCNc1ccc2nnn3c4ccc(O)cc4c(=O)c1c23")
"t"
>>> category("Cc1cccn2c(=O)c3cc(C(=O)NCCN4CCOCC4)c(=N)n(Cc4ccc(F)cc4)c3nc12")
"t"
>>> category("COc1ccc(CC(=O)Nc2cccc(-c3nnc(-c4ccccc4)o3)c2)cc1OC")
"t"
>>> category("O=C(Nc1ccc2c(c1)N(S(=O)(=O)c1cccs1)CCC2)c1c(F)cccc1F")
"f"
>>> category("COc1ccc(Nc2ncnc3ccc(Br)cc23)cc1OC")
"t"
>>> category("CN(Cc1c(C(=O)N/N=C/c2cccc(F)c2)nnn1-c1nonc1N)C1CCCCC1")
"f"
>>> category("CC(C)c1ccc(/C=N/Nc2ccc(C(=O)O)cc2)cc1")
"f"
>>> category("CCn1c(Oc2ccccc2F)nc2c1c(=O)n(C)c(=O)n2C")
"t"
>>> category("Cc1cc(/C=C2/C(=O)NN(c3ccccc3)C2=O)c(C)n1-c1ccc(O)cc1")
"f"
>>> category("COc1cc(C=CC(=O)c2cc(OC)c(OC)c(OC)c2)cc(OC)c1OC")
"t"
>>> category("Brc1cccc(CSc2nnc(-c3ccncc3)o2)c1")
"t"
>>> category("CCC(C)n1ncn(-c2ccc(N3CCN(c4ccc(O)cc4)CC3)cc2)c1=O (centres undefined)")
"t"
>>> category("Cn1nnnc1Sc1ncnc2scc(-c3ccc4c(c3)OCO4)c12")
"f"
>>> category("Cc1ccc(S(=O)(=O)N(C)C)cc1NC(=O)c1cncc(Br)c1")
"f"
>>> category("CCC(C)N(CC(=O)Nc1cccc(C)c1C)C(=O)CCl (centres undefined)")
"t"
>>> category("Cc1ccccc1Cn1c(C)nc2ccccc21")
"t"
>>> category("COc1ccc(C(=O)Nc2cnn(Cc3ccc(Cl)cc3)c2)cc1OC")
"t"
>>> category("O=c1[nH]cc(F)c(=O)[nH]1")
"f"
>>> category("CCCCCOc1ccc(/C=C/c2c([N+](=O)[O-])c(=O)n(C)c(=O)n2C)cc1")
"f"
>>> category("CC1CCN(Cc2c(C(=O)N/N=C/c3cc(Br)ccc3O)nnn2-c2nonc2N)CC1")
"t"
>>> category("Cc1cc(C(=O)COC(=O)c2cccnc2Cl)c(C)n1CC1CCCO1 (centres undefined)")
"f"
>>> category("CC1(C)CC(N2CCN(c3ccccc3)CC2)=CC(=[N+]2CCCC2)C1")
"t"
>>> category("COc1ccc(CNC(=O)c2cccc(S(=O)(=O)N3CCCCC3)c2)cc1OC")
"t"
>>> category("Cc1ccccc1-c1cc(C(=O)Nc2sc(C(=O)OC(C)C)c(C)c2C#N)c2ccccc2n1")
"t"
>>> category("Cc1cc(N2CCOCC2)c2c(N)c(Br)cc(C)c2n1")
"t"
>>> category("CCCCCCCC[n+]1cccc2c3ccccc3ccc21")
"t"
>>> category("COC(=O)N(NC(=O)C(O)(CCC(C)C)CCC(C)C)c1ccccc1")
"f"
>>> category("Cc1ccc(/C=C2\\SC(=S)N(CCCC(=O)NC3CCCC3)C2=O)cc1")
"f"
>>> category("Cc1ccc(C(=O)O/N=C(\\N)c2ccccn2)c(Cl)c1")
"f"
>>> category("COc1cc2ccccc2ccc1=NO")
"t"
>>> category("O=C(CS(=O)c1ccc(F)cc1)N1CCOCC1 (centres undefined)")
"f"
>>> category("CC1CCN(c2nc3ccc(C(=O)O)cc3s2)CC1")
"f"
>>> category("CCC[N+]1(CC#CCC(c2ccccc2)c2ccccc2)CCCCC1")
"t"
>>> category("CCOC(=O)CC(=O)CSc1nccc(-c2cccnc2)n1")
"f"
>>> category("CCCCCCCCCCCCCCCCCCNc1ccn(C2OC(COP(=O)(O)OCC3OC(n4cc(F)c(=O)[nH]c4=O)CC3O)C(O)C2O)c(=O)n1 (centres undefined)")
"t"
>>> category("c1cc(-c2nnc3sc(C4CCCCC4)nn23)ccn1")
"t"
>>> category("COc1ccc2c(c1OC)C(=O)N1c3ccccc3C(=O)N(c3ccc(F)cc3)C21 (centres undefined)")
"f"
>>> category("O=C(NCc1ccc(Cl)cc1)c1csc(-c2cccnc2)n1")
"f"
